Provenance of the data: the Immune Epitope Database (IEDB)

- studySystem: HLA-B*18:01
- method: IEDB peptide-MHC binding, purified MHC/direct/fluorescence; filed as Kd, often an IC50 or EC50 that approximates it; bounds were set here for any values at or beyond the usual limits of such assays
- assaySetup: source organism: Mammarenavirus lassaense
pKd: −log10 of the molar value.
readoutLabel: pKd

{"sequenceRecord": "NETGLELTL", "val": 7.78}

---

Kd listing for selected sequences.
- studySystem: HLA-C*04:01
- method: IEDB peptide-MHC binding, purified MHC/direct/fluorescence; filed as Kd, often an IC50 or EC50 that approximates it; bounds were set here for any values at or beyond the usual limits of such assays
- assaySetup: source organism: Homo sapiens

{"sequenceRecord": "YFYYNAFHW", "unitDescriptor": "nM", "qualifierSymbol": "≥", "Kd": 20000}
{"sequenceRecord": "WYDALCVLL", "unitDescriptor": "nM", "qualifierSymbol": "=", "Kd": 35}

---

- studySystem: HLA-B*57:01
- method: IEDB peptide-MHC binding, purified MHC/direct/fluorescence; filed as Kd, often an IC50 or EC50 that approximates it; bounds were set here for any values at or beyond the usual limits of such assays
- assaySetup: source organism: Influenza A virus (A/Memphis/1/1986(H3N2))
pKd: −log10 of the molar value.

{"sequenceRecord": "NHDGIQAGV", "pKd": "≤ 4.70"}

---

- studySystem: HLA-B*58:01
- method: IEDB peptide-MHC binding, purified MHC/direct/fluorescence; filed as Kd, often an IC50 or EC50 that approximates it; bounds were set here for any values at or beyond the usual limits of such assays
- assaySetup: source organism: Mycobacterium tuberculosis variant bovis BCG str. Pasteur 1173P2
pKd: −log10 of the molar value.
readoutLabel: pKd

{"sequenceRecord": "IIRVTSELL", "studySystem": "HLA-B*58:01", "readoutLabel": "pKd", "val": "≤ 4.70"}

---

- studySystem: HLA-B*15:17
- method: IEDB peptide-MHC binding, purified MHC/competitive/fluorescence; filed as Kd, often an IC50 or EC50 that approximates it; bounds were set here for any values at or beyond the usual limits of such assays
- assaySetup: source organism: Variola virus
pKd: −log10 of the molar value.
readoutLabel: pKd

{"sequenceRecord": "EYKKFIATF", "studySystem": "HLA-B*15:17", "val": 6.06}

---

Below: a set of entries, each annotated with reported Kd.
- studySystem: HLA-A*33:01
- method: IEDB peptide-MHC binding, purified MHC/competitive/radioactivity; filed as Kd, often an IC50 or EC50 that approximates it; bounds were set here for any values at or beyond the usual limits of such assays
- assaySetup: source organism: Vaccinia virus WR
readoutLabel: Kd (µM)

{"sequenceRecord": "DAVRAFLLR", "unitDescriptor": "µM", "qualifierSymbol": "=", "val": 0.0234}
{"sequenceRecord": "RFVKFNDYRK", "unitDescriptor": "µM", "qualifierSymbol": "=", "val": 1.83}
{"sequenceRecord": "KVVKKLSVIR", "unitDescriptor": "µM", "qualifierSymbol": "=", "val": 3.62}
{"sequenceRecord": "RSNAILHNIY", "unitDescriptor": "µM", "qualifierSymbol": "≥", "val": 70}
{"sequenceRecord": "KSNILMWNK", "unitDescriptor": "µM", "qualifierSymbol": "=", "val": 13.7}
{"sequenceRecord": "ELAELLEMK", "unitDescriptor": "µM", "qualifierSymbol": "=", "val": 1.21}
{"sequenceRecord": "FIMLEGETK", "unitDescriptor": "µM", "qualifierSymbol": "=", "val": 4.41}
